System: LXRb:RXRa (NR concentration 270 nM, RXRa partner concentration 90 nM)
testDescription: PBM binding z-score (relative to random genomic background probes); higher = stronger binding; sequences stand for … in GC…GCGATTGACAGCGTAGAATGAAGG
measuredAttribute: PBM binding z-score
Respond using a number only.

| residueCodes | PBM binding z-score |
| --- | --- |
| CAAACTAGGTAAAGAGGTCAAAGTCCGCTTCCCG | 4.65 |
| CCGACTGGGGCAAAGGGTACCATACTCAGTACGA | 0.194 |
| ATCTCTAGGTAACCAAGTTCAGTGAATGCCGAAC | 0.638 |
| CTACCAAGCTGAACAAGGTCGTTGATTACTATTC | 1.31 |
| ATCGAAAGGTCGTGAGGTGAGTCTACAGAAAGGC | 3.17 |

# return recorded PBM binding z-score for entry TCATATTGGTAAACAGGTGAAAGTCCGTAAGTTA
1.15

# return recorded PBM binding z-score for entry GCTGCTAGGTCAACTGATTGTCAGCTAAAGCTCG
2.06

# return recorded PBM binding z-score for entry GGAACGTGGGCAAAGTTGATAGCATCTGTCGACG
-0.667

# return recorded PBM binding z-score for entry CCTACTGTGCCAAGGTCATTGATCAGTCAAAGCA
3.26

# return recorded PBM binding z-score for entry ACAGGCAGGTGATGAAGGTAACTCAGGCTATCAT
-0.214

# return recorded PBM binding z-score for entry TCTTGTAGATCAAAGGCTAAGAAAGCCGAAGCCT
-0.0772

# return recorded PBM binding z-score for entry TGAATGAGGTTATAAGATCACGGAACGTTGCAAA
1.48
